# Assay text: RP, Waters ACQUITY UPLC BEH C18, 50 × 2.1 mm, 1.7 µm, 40 °C, 0.6 mL/min, estimated dead time 0.18 min; A: water + 0.1% formic acid, pH 3; B: acetonitrile + 0.1% formic acid, pH 3; gradient (min/%B) 0/5 7/100 8/100
# Experimental conditions: stereoisomer not certain
Reported metric: LC retention time
Reply with the number and its unit after it.

State recorded LC retention time for all listed molecules.
1. COc1cc2c(cc1OC)-c1c(OC)c(OC)cc3c1C(C2)N(C)CC3 (stereo not drawn)
2. CC(C)(O)/C=C/C(=O)[C@](C)(O)[C@H]1[C@H](O)C[C@@]2(C)C3CC=C4C(CC(=O)C(O)C4(C)C)[C@]3(C)C(=O)C[C@]12C (stereo partly drawn)
3. C=C1C(=O)O[C@@H]2C[C@@]3(C)CCC[C@H](C)C3=C[C@H]12

[A]
1.87 min
2.9 min
4.26 min

---

# Assay text: RP, Waters ACQUITY UPLC BEH C18, 50 × 2.1 mm, 1.7 µm, 40 °C, 0.6 mL/min, estimated dead time 0.18 min; A: water + 0.1% formic acid, pH 3; B: acetonitrile + 0.1% formic acid, pH 3; gradient (min/%B) 0/5 7/100 8/100
# Experimental conditions: stereoisomer not certain
Reported metric: LC retention time (min)
One number for each entry, in min.

>  <Compound>
COc1c(-c2c(C)cc(OC)c3c(OC)cccc23)c(O)cc2c1C(C)NC(C)C2 (stereo not given)

>  <Reported metric>
LC retention time

>  <Value observed>
2.1

$$$$
>  <Compound>
CC(=O)OC/C=C(\C)C(=O)OC1C(=O)C(CO)=CC(OC(C)=O)C1C(C)C (stereo not given)

>  <Reported metric>
LC retention time

>  <Value observed>
2.84

$$$$
>  <Compound>
C/C=C1\CN2CCc3c([nH]c4ccccc34)[C@@H]2C[C@@H]1/C(=C\OC)C(=O)OC

>  <Reported metric>
LC retention time

>  <Value observed>
2.41

$$$$

Fill in LC retention time for each of the 5 compounds listed.
1. Cn1c(N)nc2c(ncn2C)c1=O [2-amino-1,9-dimethyl-6,9-dihydro-1H-purin-6-one]
2. CCN1CC2(COC(=O)c3ccccc3N)CCC(OC)C34C5CC6C(OC)CC(O)(C5C6OC)C(O)(C(OC)C23)C14 (stereo not given)
3. C=C(C)C1CCC2(C(=O)O)CCC3(C)C(CCC4C5(C)CCC(OC(=O)/C=C/c6ccc(O)c(O)c6)C(C)(C)C5CCC43C)C12 (stereo not given)
4. COc1cc2ccc(=O)oc2cc1OC
5. COc1c(O)cc2c3c1C1(C=CC(=O)C=C1)CC3N(C)CC2 (stereo not given)

[A]
0.226
2.4
5.65
1.87
0.738

---

# Assay text: RP, Waters ACQUITY UPLC BEH C18, 50 × 2.1 mm, 1.7 µm, 40 °C, 0.6 mL/min, estimated dead time 0.18 min; A: water + 0.1% formic acid, pH 3; B: acetonitrile + 0.1% formic acid, pH 3; gradient (min/%B) 0/5 7/100 8/100
# Experimental conditions: stereoisomer not certain
Lab note: anything with LC retention time below 3 min is marked true (1); values at 3 min or higher are marked false (0).

Known results for compounds:
>  <Compound>
COc1cc(/C=C/c2ccc(OCC=C(C)C)cc2)cc(OC)c1

>  <Class>
false (0)

$$$$
>  <Compound>
C=C1COC(=O)C12C[C@@]1(C)C([C@@H](OC(=O)/C=C/SC)CC[C@@H]1C)[C@H]2OC(C)=O (some centres not stated)

>  <Class>
false (0)

$$$$
>  <Compound>
C=C(C)C(CC=C(C)C)Cc1c(O)cc(OC)c2c1OC(c1ccc(O)cc1O)CC2=O (configuration not stated)

>  <Class>
false (0)

$$$$

[Q] Below 3 min on LC retention time? Entry COc1cccc2nc3occc3c(OC)c12 [4,5-dimethoxyfuro[2,3-b]quinoline]
[A] true (1)

[Q] For CC[C@H]1NC2C[C@@]3(C(=O)N(OC)c4cc(OC)ccc43)C3OCC2C1[C@@H]3O (some centres not stated) , is the recorded LC retention time below the cut-off of 3 min?
[A] true (1)

[Q] Hello, I'm reviewing records and need to know if LC retention time of COc1ccc2c(c1OC)C(=O)OC2C1c2c(cc3c(c2OC)OCO3)CCN1C (configuration not stated) is below 3 min. Could you check?
[A] true (1)

[Q] Could you please tell me whether LC retention time recorded for C=C(CO)C(=O)OC1CC(=C)C2CC(O)C(=C)C2C2OC(=O)C(=C)C12 (configuration not stated) is less than 3 min?
[A] true (1)

[Q] Hello, is LC retention time of the following compound strictly smaller than 3 min? C/C(=C\C1CC(C2CCC34CC23C=CC2C3(C)CC=C5CC(c6ccccc6)OCC5(C)C3CC(O)C24C)C(=O)O1)CO (configuration not stated)
[A] false (0)

[Q] In the record for CC(C)(O)/C=C/C(=O)[C@](C)(O)[C@H]1[C@H](O)C[C@@]2(C)[C@@H]3CC=C4[C@@H](C[C@H](O)C(=O)C4(C)C)[C@]3(C)C(=O)C[C@]12C , is LC retention time less than 3 min?
[A] true (1)

[Q] Strictly below 3 min in LC retention time? CC[C@H]1C[C@H]2CN3CCc4c([nH]c5ccc(OC)cc45)[C@](C(=O)OC)(C2)C13
[A] true (1)

[Q] Take the compound CCCCCCCCCCCCCCC[C@@H]1CCC[C@@H](C)N1 [(2R,6R)-2-methyl-6-pentadecylpiperidine] and say whether its LC retention time is less than 3 min.
[A] false (0)

[Q] Problem: For the compound COc1ccc(OC)c([N+](=O)[O-])c1/C=C/[N+](=O)[O-] [1,4-dimethoxy-2-nitro-3-[(1E)-2-nitroethenyl]benzene] , is LC retention time under 3 min?
[A] true (1)
